# assayed_target: [p38α:TAB1(1-438)]complex (Mus musculus, UniProt P47811)
# Sequence (P47811 whole entry): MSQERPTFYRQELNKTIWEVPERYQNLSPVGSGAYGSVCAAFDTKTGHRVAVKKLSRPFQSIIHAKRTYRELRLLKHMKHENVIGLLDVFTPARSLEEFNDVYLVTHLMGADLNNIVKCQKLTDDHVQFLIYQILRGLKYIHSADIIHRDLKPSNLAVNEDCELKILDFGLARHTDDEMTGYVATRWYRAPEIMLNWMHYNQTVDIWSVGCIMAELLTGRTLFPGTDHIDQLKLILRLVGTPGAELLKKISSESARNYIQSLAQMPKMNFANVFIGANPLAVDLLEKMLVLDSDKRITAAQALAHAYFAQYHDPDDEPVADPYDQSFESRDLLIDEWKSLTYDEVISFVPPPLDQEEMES
# Sequence (Q8CF89 1-438 partner): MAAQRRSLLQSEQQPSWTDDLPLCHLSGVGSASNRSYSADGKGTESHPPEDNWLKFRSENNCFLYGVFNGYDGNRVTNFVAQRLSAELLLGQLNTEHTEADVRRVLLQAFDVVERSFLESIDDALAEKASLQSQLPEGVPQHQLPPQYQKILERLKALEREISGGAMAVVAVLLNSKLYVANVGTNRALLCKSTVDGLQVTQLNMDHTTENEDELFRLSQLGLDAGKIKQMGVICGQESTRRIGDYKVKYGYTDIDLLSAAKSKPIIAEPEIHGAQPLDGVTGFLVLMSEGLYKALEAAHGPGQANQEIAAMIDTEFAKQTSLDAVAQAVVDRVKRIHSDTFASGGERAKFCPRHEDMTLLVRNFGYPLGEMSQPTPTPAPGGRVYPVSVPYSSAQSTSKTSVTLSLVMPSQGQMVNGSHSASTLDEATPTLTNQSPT
# method_summary: ITC binding to [p38α:TAB1
readout_kind: Kd
Kindly format the answer as number then unit.

Requested read-out: Kd. Entry: Nc1ncnc2c1ncn2[C@@H]1O[C@H](CO[P@](=O)(O)O[P@](=O)(O)O[P@@](=O)(O)S)[C@@H](O)[C@H]1O [ATPγS]
5.3 µM
